system_under_test: T1, recombinant human Nectin4 antigen (human, UniProt Q96NY8 32-349)
T1 construct: construct not described
T1 sequence (looked up): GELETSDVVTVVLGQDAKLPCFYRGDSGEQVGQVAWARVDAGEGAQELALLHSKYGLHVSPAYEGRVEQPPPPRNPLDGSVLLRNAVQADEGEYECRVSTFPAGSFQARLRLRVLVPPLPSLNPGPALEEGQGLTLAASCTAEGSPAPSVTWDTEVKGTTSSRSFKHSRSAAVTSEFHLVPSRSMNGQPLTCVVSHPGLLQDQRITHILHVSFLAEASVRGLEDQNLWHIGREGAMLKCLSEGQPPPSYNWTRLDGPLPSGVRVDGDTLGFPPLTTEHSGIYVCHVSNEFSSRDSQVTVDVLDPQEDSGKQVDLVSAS
assay_text: ELISA, coated antigen, PSB pH 6.0
Procedure: 1) Coat ELISA plates with 100 μL of 1 μg/mL recombinant human Nectin4 antigen or cynoNectin4 antigen in carbonate-bicarbonate coating buffer. […] 2) Cover plates with sealing film and incubate overnight at 4° C. [0444] 3) Decant plates and tap out residual liquid on a stack of paper towels. [0445] 4) Wash wells twice by dispensing 200 μL of pH 6.0 or pH 7.4 ELISA incubation buffer to the wells and completely aspirate the contents. [0446] […]
measured_property: EC50 (µg/mL)
The reply should be a number in µg/mL, with the unit left off.

Ask: What EC50 value was documented for this binder, BAP-143-06-24-16 (antibody, V domains shown, Used as a conjugate with a linker payload (CAB ADC)) VH: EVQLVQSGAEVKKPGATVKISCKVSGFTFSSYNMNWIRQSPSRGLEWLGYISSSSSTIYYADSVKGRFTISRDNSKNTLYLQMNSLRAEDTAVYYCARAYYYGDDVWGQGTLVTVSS VL: DIQMTQSPSSVSASVGDRVTITCHASQGISGWLAWYQQKPGKAPKFLIYAASTLQSGVPSRFSGSGSGTDFTLTISSLQPEDFATYYCQQANSFPPTFGGGTKVEIK ?
Reply: 0.0368
